Data origin: patent US20030088057A1

System: γ-PAK
Sequence (Q29502 249-500 limits assumed): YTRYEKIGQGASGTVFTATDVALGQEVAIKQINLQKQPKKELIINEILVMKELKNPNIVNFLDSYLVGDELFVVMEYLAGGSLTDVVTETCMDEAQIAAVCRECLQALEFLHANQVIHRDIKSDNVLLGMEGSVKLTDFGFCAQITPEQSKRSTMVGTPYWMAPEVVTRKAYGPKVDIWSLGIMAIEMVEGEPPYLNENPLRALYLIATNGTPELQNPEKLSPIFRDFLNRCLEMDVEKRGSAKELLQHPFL
Assay: Rates of phosphorylation of synthetic peptides by γ-PAK
Type: biochemical, rabbit
Details: proteolytically activated γ-PAK (5.6 units); peptide 1 mM; 30 min at 30° C.
No end group written: not given here.
Param label: returns 1 when 32P incorporated < 200 pmol/min/µg, returns -1 otherwise, including exact equality.

> print(dat)
                                   substance  group
 1  KKAASAA (KKAASAA-NH2) [synthetic peptide with an amide C-terminal group]      1
 2  AAKKSAA (AAKKSAA-NH2) [synthetic peptide with an amide C-terminal group]      1
 3  AKRASAA (AKRASAA-NH2) [synthetic peptide with an amide C-terminal group]     -1
 4  ARKASAA (ARKASAA-NH2) [synthetic peptide with an amide C-terminal group]      1
 5  EKRASAA (EKRASAA-NH2) [synthetic peptide with an amide C-terminal group]     -1
 6  AKRASPA (AKRASPA-NH2) [synthetic peptide with an amide C-terminal group]      1
 7  KKRKSAA [model peptide patterned after the phosphorylation site of nucleocapsid protein NC]     -1
 8  AKRASEA (AKRASEA-NH2) [synthetic peptide with an amide C-terminal group]     -1
 9  RKKKSAA (RKKKSAA-NH2) [synthetic peptide with an amide C-terminal group]      1
10  ARRASAA (ARRASAA-NH2) [synthetic peptide with an amide C-terminal group]     -1
11  AARASAA (AARASAA-NH2) [synthetic peptide with an amide C-terminal group]      1
12  AKAASAA (AKAASAA-NH2) [synthetic peptide with an amide C-terminal group]      1
13  AAAASKR (AAAASKR-NH2) [synthetic peptide with an amide C-terminal group]      1
14  AKRASGA (AKRASGA-NH2) [synthetic peptide with an amide C-terminal group]     -1
15  AKRGSAA (AKRGSAA-NH2) [synthetic peptide with an amide C-terminal group]     -1
16  AKRKSAA (AKRKSAA-NH2) [synthetic peptide with an amide C-terminal group]     -1
17  KKRASAA (KKRASAA-NH2) [synthetic peptide with an amide C-terminal group]     -1
18  PKRASAA (PKRASAA-NH2) [synthetic peptide with an amide C-terminal group]     -1
19  AAKRSAA (AAKRSAA-NH2) [synthetic peptide with an amide C-terminal group]      1
20  AKRESAA (AKRESAA-NH2) [synthetic peptide with an amide C-terminal group]     -1
21  AKRPSAA (AKRPSAA-NH2) [synthetic peptide with an amide C-terminal group]      1

----------
Molecular target: PKA (Bos taurus)
Construct: the purified catalytic subunit of cAMP-dependent protein kinase from bovine heart was a gift; from tissue; host or cells: bovine heart (gift from Dr. William H. Fletcher)
Assay: Rates of phosphorylation of synthetic peptides by PKA
Type: biochemical, bovine
Conditions: PKA (10.5 units); 0.14 mM ATP
No end group written: not given here.
METRIC: 32P incorporated

> print(dat)
                                  substance  measured.value
1  AKRASEA (AKRASEA-NH2) [synthetic peptide with an amide C-terminal group]   3.6 pmol/unit
2  PKRASAA (PKRASAA-NH2) [synthetic peptide with an amide C-terminal group]   6.9 pmol/unit
3  EKRASAA (EKRASAA-NH2) [synthetic peptide with an amide C-terminal group]   1.7 pmol/unit
4  AKRASAA (AKRASAA-NH2) [synthetic peptide with an amide C-terminal group]   4.8 pmol/unit
5  AKRESAA (AKRESAA-NH2) [synthetic peptide with an amide C-terminal group]   1.8 pmol/unit
6  RKKKSAA (RKKKSAA-NH2) [synthetic peptide with an amide C-terminal group]   5.4 pmol/unit
